Source: patent US20210253679A1

- assayed system: T1, human serum albumin (human, UniProt P02768 25-609)
- T1 construct: also called HSA
- procedure text: SPR, single cycle kinetics, pH 7.4
pKd: −log10 of the molar value.
Class yes (1): pKd at least 8. Class no (0): pKd below 8.

binder	assigned class
M75-H5 (VHH) VHH: QVQLVESGGGLVQPGGSLRLSCAASGRTFDNYVMAWFRQAPGKEREFVASISGSGSITNYANSVKDRFTISRDSAKNAIYLQMNSLRAEDTAVYYCAAGSRRTYYREPKFYPSWGQGTLVTVSS	yes (1)
H18 sdAb (VHH, also called H18 VHH) VHH: QVQLVESGGGLVQAGGSLRLSCTASGSIESINRMAWYRQAPGQQREFVARISKGGSTNYPDSVKGRFTISRDNAKNTVYLQMNSLKPEDTAVYYCAAGPVWEQFWGQGTQVTVSS	no (0)
R28-H3 (VHH) VHH: QVQLVESGGGLVQPGGSLRLSCAASGRTFIAYAMGWFRQAPGKEREFVAAITNFAGGTTYYADSVKGRFTISRDNSKNTLYLQMNSLRAEDTAVYYCAADRSAQTMRQVRPVLPYWGQGTLVTVSS	no (0)
M79-H2 (VHH) VHH: EVQLVESGGGLVQPGGSLRLSCAASGSTFSSSSVGWYRQAPGKGLELVSAITSGGSTNTADSVKGRFTISRDNSKNTLYLQMNSLRAEDTAVYYCNVAGRNWVPISRYSPGPYWGQGTLVTVSS	no (0)
Rh46-H3 (VHH) VHH: QVQLVESGGGLVQPGGSLRLSCAASTRTFSSYIMGWFRQAPGKERELVAAISWSGRMTHYADSVKGRFTISRDNSKNTLYLQMNSLRAEDTAVYYCAADRTTAWGAPRSQYDSWGQGTLVTVSS	no (0)
M75-H1 (VHH) VHH: EVQLVESGGGLVQPGGSLRLSCAASGRTFDNYVMAWFRQAPGKGLEFVSSISGSGSITNYANSVKDRFTISRDNSKNTLYLQMNSLRAEDTAVYYCAAGSRRTYYREPKFYPSWGQGTLVTVSS	yes (1)
